STUDY_SYSTEM: recombinant METTL3/METTL14 complex (Homo sapiens)
Sequence (Q86U44 whole entry): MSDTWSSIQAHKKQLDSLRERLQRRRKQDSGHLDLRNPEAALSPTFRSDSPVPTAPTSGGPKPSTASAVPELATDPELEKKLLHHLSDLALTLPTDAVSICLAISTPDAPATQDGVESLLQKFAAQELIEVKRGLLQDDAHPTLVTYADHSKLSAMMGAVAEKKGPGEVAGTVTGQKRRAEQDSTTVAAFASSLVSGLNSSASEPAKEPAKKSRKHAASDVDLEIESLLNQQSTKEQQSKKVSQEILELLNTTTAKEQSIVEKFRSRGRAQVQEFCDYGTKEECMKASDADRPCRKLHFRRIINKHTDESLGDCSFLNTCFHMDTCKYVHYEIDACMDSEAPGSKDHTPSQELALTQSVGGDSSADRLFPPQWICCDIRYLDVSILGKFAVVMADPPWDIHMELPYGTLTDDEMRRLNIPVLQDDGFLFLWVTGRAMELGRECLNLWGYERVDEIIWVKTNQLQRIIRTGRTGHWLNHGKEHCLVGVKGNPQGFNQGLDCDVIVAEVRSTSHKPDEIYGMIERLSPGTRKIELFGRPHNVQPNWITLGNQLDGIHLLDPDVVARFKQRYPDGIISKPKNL
Sequence (Q9HCE5 whole entry partner): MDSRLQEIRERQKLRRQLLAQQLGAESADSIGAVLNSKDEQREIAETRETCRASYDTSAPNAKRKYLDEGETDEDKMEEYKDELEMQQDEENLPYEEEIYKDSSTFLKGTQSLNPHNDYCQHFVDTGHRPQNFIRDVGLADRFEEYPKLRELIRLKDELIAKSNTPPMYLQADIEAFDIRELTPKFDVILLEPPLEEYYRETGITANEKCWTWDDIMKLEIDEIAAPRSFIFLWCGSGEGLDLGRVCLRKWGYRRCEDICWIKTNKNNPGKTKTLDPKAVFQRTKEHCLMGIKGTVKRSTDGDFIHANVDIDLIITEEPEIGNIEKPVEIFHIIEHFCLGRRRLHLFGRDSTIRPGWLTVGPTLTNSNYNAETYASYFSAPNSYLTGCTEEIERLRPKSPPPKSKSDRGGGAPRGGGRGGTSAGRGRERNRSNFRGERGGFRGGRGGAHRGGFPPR
TEST_METHOD_NOTES: METTL3/14 Scintillation Proximity Assay (SPA), RNA methyltransferase activity
MEASUREMENT_CONDITIONS: 5.31 nM METTL3/14 complex, 250 nM RNA substrate, 1 μM 3H-SAM, 90 min; for compounds marked * best of the two separated forms
The entries below are paired with their reported IC50.

COc1cncc(-n2cc(C(C)n3ccc(N4CCC[C@@H](NCC5CCC5)C4)cc3=O)cn2)c1 (mixture of isomers): ≤ 50 nM
COc1cc(-c2cn(Cc3ncc(N4CCCC(NCC5CCC5)C4)s3)nn2)c2cn[nH]c2c1 (stereo not shown): ≤ 50 nM
CC(c1cnn(-c2cncc(N(C)C)c2)c1)n1ccc(N2CCC[C@@H](NCC3CCC3)C2)cc1=O (mixture of isomers): ≤ 50 nM
COc1cc(-c2cn(Cn3ncc(N4CCCC(NCC5CCC5)C4)cc3=O)nn2)c2cn[nH]c2c1 (stereo not shown): ≤ 50 nM
COc1cnnc(-c2cn(C(C)c3ccc(N4CCC[C@@H](NCC5CCC5)C4)nn3)nn2)c1 (single isomer, unassigned): 50 to 500 nM
CC(n1cc(-c2cncc(N3CCCC3)c2)nn1)n1ccc(N2CCC[C@@H](NCC3CCC3)C2)cc1=O (single isomer, unassigned): ≤ 50 nM

--- query ---
Prompt: I have this molecule here, COc1cncc(NC(=O)C(C)c2ccc(N3CCC[C@@H](NCC4CCC4)C3)nn2)c1 (stereo partly shown) , and I need its recorded IC50.
Response: 50 to 500 nM
